In this section, each of the molecules is paired with its reported Ratio.
Assay: Ratio of drug uptake in frontal lobe to cerebellum in anesthetized cynomolgus monkey after 135 mins postinjection
Assay type: ADME, organism-based, Macaca fascicularis
Settings: in vivo, 2.25 h
quantity: Ratio

* O=C(OCCC[18F])C1C2CCC(CC1c1cccc(/C=C\Br)c1)N2 (centres undefined) | 1
* O=C(OCCC[18F])C1C2CCC(CC1c1cccc(/C=C\I)c1)N2 (centres undefined) | 0.9
* O=C(OCC[18F])C1C2CCC(CC1c1cccc(/C=C\Br)c1)N2 (centres undefined) | 1.1
* O=C(OCC[18F])C1C2CCC(CC1c1cccc(/C=C\I)c1)N2 (centres undefined) | 1.1

Attribution: ChEMBL document CHEMBL1151757
